# Assayed Target: WT-YjdL (Escherichia coli)
# Construct: expressed in transfected cells; host or cells: E. coli BL21(DE3)pLysS, pTTQ18-yjdL, IPTG-induced
# Experiment Notes: cell-based
# Type: cell-based, E. coli
# Test Parameters: IC50 (inhibition of β-Ala-Lys(AMCA) uptake), WT-YjdL a
Residues, ends and D or L forms follow the SMILES beside them.
Just a reminder that ties go to Condition not met: only IC50 strictly below 600 µM counts as Condition met.

See these solved cases before continuing.
IC50 strictly < 600 µM for this compound? C[C@H](NC(=O)[C@@H](N)Cc1ccc(O)cc1)C(=O)O [Tyr-Ala]
Condition not met

IC50 strictly < 600 µM for this compound? C[C@H](N)C(=O)N[C@@H](C)C(=O)O [Ala-Ala] (H-Ala-Ala-OH)
Condition not met

IC50 strictly < 600 µM for this compound? CSCC[C@H](N)C(=O)N[C@@H](CCCCN)C(=O)O [Met-Lys] (H-Met-Lys-OH)
Condition met

IC50 strictly < 600 µM for this compound? C[C@H](N)C(=O)N[C@@H](CCCCN)C(=O)O [Ala-Lys] (H-Ala-Lys-OH)
Condition met

Would you kindly look at the next entry?
IC50 strictly < 600 µM for this compound? NCCCC[C@H](NC(=O)[C@@H](N)Cc1ccc(O)cc1)C(=O)O [Tyr-Lys] (H-Tyr-Lys-OH)
Condition met

###

# Assayed Target: WT-YjdL (Escherichia coli, UniProt P39276)
# Construct: expressed in transfected cells; host or cells: E. coli BL21(DE3)pLysS, pTTQ18-yjdL, IPTG-induced
# Sequence (P39276 1-485): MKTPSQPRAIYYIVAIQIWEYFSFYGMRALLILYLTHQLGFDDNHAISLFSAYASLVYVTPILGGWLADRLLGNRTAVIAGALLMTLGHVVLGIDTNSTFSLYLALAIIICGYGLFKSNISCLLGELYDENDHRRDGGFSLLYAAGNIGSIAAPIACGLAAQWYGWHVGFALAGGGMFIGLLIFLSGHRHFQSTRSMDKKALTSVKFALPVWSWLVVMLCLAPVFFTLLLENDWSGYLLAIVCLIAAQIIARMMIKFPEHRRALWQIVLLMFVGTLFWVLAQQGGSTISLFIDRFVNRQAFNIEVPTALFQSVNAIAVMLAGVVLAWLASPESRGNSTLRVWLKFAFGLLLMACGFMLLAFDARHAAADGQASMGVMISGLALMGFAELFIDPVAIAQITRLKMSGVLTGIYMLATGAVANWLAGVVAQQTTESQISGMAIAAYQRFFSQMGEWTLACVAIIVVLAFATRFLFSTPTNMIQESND
# Experiment Notes: cell-based
# Format: cell-based, E. coli
# Test Parameters: IC50 (inhibition of β-Ala-Lys(AMCA) uptake), WT-YjdL b
Residues, ends and D or L forms follow the SMILES beside them.
Exercise: for every item that follows, state its recorded IC50.
Give bare numbers, in µM.

# example entries with known answers
Any idea what IC50 was measured for C[C@H](N)C(=O)N[C@@H](CCCCN)C(=O)O [Ala-Lys] (H-Ala-Lys-OH) ?
890

Any idea what IC50 was measured for C[C@H](N)C(=O)N[C@@H](C)C(=O)O [Ala-Ala] (H-Ala-Ala-OH) ?
2200

--- query ---
Any idea what IC50 was measured for C[C@H](NC(=O)[C@@H](N)Cc1ccc(O)cc1)C(=O)O [Tyr-Ala] ?
2400

###

# Assayed Target: WT-YdgR (Escherichia coli)
# Construct: expressed in transfected cells; host or cells: E. coli BL21(DE3)pLysS, pTTQ18-ydgR, IPTG-induced
# Sequence (P77304 whole entry): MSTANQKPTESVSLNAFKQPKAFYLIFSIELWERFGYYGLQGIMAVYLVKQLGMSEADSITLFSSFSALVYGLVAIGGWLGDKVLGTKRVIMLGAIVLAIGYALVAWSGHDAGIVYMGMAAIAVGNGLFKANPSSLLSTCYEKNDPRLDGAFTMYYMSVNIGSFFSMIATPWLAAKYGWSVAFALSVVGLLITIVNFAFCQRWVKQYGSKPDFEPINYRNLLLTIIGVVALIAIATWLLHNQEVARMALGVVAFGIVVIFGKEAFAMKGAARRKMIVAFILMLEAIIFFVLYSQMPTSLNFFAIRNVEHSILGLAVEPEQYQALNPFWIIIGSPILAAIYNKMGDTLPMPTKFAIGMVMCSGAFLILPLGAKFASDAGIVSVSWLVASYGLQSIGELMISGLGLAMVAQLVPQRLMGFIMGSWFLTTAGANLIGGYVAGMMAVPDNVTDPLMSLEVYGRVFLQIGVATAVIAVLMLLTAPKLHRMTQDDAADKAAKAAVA
# Experiment Notes: cell-based
# Format: cell-based, E. coli
# Test Parameters: IC50 (inhibition of β-Ala-Lys(AMCA) uptake), WT-YdgR a
Residues, ends and D or L forms follow the SMILES beside them.
Endpoint Name: IC50 (µM)
Give bare numbers, in µM.

Any idea what IC50 was measured for C[C@H](N)C(=O)N[C@@H](C)C(=O)O [Ala-Ala] (H-Ala-Ala-OH) ?
390

###

# Assayed Target: YjdL Tyr113Phe (Escherichia coli, UniProt P39276, Y113F)
# Sequence (P39276 1-485 Y113F): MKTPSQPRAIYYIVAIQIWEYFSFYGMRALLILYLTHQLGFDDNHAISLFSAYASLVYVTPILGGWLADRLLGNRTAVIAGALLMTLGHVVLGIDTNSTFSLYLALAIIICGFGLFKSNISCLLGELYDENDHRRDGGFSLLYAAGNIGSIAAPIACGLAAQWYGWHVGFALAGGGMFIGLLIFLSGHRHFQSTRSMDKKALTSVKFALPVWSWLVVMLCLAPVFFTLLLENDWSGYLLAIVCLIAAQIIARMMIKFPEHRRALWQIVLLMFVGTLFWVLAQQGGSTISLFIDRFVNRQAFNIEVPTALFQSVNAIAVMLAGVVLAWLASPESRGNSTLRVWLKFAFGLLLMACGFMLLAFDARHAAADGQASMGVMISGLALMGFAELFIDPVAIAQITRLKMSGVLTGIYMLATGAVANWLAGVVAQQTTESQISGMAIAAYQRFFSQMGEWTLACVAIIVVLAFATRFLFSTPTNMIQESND
# Experiment Notes: β-Ala-Lys(AMCA) uptake and inhibition assay, YjdL Tyr113Phe
# Test Parameters: 0.2 mM β-Ala-Lys(AMCA), 5 min incubation, pH 6.5; ±SEM, n≥3
Residues, ends and D or L forms follow the SMILES beside them.
Exercise: for every item that follows, state its recorded pIC50.
One number for each entry, as −log10 of the molar value.

# example entries with known answers
Any idea what pIC50 was measured for C[C@H](N)C(=O)N[C@@H](CCCCN)C(=O)O [Ala-Lys] (H-Ala-Lys-OH) ?
3.47

Any idea what pIC50 was measured for C[C@H](NC(=O)[C@@H](N)Cc1ccc(O)cc1)C(=O)O [Tyr-Ala] ?
2.89

--- query ---
Any idea what pIC50 was measured for C[C@H](N)C(=O)N[C@@H](C)C(=O)O [Ala-Ala] (H-Ala-Ala-OH) ?
2.72

###

# Assayed Target: YjdL Ala281Phe (Escherichia coli, UniProt P39276, A281F)
# Construct: host or cells: E. coli BL21(DE3)pLysS
# Sequence (P39276 1-485 A281F): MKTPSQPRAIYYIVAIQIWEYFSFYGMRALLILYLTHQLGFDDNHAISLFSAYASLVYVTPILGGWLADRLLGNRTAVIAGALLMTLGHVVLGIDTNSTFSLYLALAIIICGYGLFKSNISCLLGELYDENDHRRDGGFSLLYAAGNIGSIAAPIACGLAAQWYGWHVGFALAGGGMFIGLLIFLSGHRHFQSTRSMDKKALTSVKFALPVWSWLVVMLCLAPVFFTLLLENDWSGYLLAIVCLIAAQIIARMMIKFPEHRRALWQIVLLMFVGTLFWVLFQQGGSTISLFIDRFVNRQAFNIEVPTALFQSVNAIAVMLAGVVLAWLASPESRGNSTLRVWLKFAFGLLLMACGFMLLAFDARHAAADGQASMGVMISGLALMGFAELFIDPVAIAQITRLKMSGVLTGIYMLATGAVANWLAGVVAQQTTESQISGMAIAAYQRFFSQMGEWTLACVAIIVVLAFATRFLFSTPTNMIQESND
# Experiment Notes: β-Ala-Lys(AMCA) uptake and inhibition assay, YjdL Ala281Phe
# Type: cell-based, E. coli
# Test Parameters: 0.2 mM β-Ala-Lys(AMCA), 5 min incubation, pH 6.5; ±SEM, n≥3
Residues, ends and D or L forms follow the SMILES beside them.
Just a reminder that ties go to False: only IC50 strictly below 200 µM counts as True.

IC50 strictly < 200 µM for this molecule? C[C@H](NC(=O)[C@@H](N)Cc1ccc(O)cc1)C(=O)O [Tyr-Ala]
False

IC50 strictly < 200 µM for this molecule? CSCC[C@H](N)C(=O)N[C@@H](CCCCN)C(=O)O [Met-Lys] (H-Met-Lys-OH)
True

IC50 strictly < 200 µM for this molecule? C[C@H](N)C(=O)N[C@@H](CCCCN)C(=O)O [Ala-Lys] (H-Ala-Lys-OH)
False

IC50 strictly < 200 µM for this molecule? C[C@H](N)C(=O)N[C@@H](C)C(=O)O [Ala-Ala] (H-Ala-Ala-OH)
False

IC50 strictly < 200 µM for this molecule? NCCCC[C@H](NC(=O)[C@@H](N)Cc1c[nH]c2ccccc12)C(=O)O [Trp-Lys] (H-Trp-Lys-OH)
True

***
IC50 strictly < 200 µM for this molecule? NCCCC[C@H](NC(=O)[C@@H](N)Cc1ccc(O)cc1)C(=O)O [Tyr-Lys] (H-Tyr-Lys-OH)
True
